- measured_target: Progesterone receptor (Homo sapiens, UniProt P06401)
- Sequence (P06401 whole entry): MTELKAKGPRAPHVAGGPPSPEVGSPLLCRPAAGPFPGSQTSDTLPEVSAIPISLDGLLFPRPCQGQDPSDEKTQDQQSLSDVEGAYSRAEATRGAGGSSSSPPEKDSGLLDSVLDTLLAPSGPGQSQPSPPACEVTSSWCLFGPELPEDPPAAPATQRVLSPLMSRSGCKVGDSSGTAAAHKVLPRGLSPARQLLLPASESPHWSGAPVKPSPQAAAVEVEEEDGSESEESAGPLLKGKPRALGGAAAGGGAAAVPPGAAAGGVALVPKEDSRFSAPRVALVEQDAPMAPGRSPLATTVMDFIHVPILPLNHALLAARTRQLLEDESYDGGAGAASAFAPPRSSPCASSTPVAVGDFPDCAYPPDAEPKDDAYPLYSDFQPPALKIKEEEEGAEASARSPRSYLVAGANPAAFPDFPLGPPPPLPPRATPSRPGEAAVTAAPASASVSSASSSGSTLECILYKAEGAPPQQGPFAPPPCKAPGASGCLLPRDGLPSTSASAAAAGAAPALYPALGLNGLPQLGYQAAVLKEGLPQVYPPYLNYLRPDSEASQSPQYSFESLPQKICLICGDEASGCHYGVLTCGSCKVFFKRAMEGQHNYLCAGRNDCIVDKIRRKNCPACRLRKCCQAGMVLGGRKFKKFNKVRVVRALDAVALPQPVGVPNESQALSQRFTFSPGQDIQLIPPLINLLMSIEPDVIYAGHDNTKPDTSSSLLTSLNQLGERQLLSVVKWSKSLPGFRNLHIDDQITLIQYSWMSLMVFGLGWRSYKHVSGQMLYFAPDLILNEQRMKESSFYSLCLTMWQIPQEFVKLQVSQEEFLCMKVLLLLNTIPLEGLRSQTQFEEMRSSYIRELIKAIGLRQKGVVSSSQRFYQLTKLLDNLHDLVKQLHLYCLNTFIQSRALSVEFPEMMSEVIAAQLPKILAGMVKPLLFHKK
- test_description: Inhibition of progesterone receptor
measurement_name: IC50

// map N#Cc1ccc(C2CCCCC2O)cc1C(F)(F)F (racemic) to recorded IC50 (system: Progesterone receptor (Homo sapiens, UniProt P06401))
> 10 µM

What reported IC50 corresponds to N#Cc1ccc([C@H]2CCCC[C@H]2O)cc1C(F)(F)F on Progesterone receptor (Homo sapiens, UniProt P06401)?
> 10 µM

Please provide the recorded IC50 for N#Cc1ccc(O[C@@H]2CCCC[C@H]2C#N)cc1C(F)(F)F , tested on Progesterone receptor (Homo sapiens, UniProt P06401).
> 10 µM

The values you see were collected from ChEMBL document CHEMBL1142535.
